Ref: the nanobody polyreactivity screen of Harvey et al. (2022)

- assayProcedure: yeast display, Sf9 membrane polyspecificity reagent, FACS + sequencing; frameworks hold sequencing errors

[
  {
    "chainSequence": "QVQLVESGGGLVQAGGSLRLSCAASGGILRQNTMGWYRQAPGKETELVAAISSSGGRTYYADSVKGRFTISRDNAKNTVYLQMNSLKPEDTAVYYCARGYSWSVGYPRVHDMDYWGQGTQVTVSS",
    "polyreactivity (PSR sort gate)": "high polyreactivity"
  },
  {
    "chainSequence": "QVQLVESGGGLVHAGGSLRLSCAASGSIFFHNAMGWYRQAPGKERELVAAISGGGSTTYADSVKGRFTISRDNAKNTVYLQMNSLKPEDTAVYYCAKSYRYYALHYSPGWYNYWGQGTQVTVSS",
    "polyreactivity (PSR sort gate)": "high polyreactivity"
  },
  {
    "chainSequence": "QVQLVESGGGLVQAGGSLRLSCAASGRTFGYYTMGWYRQAPGKEREYVAAISGSGTITFYADSVKGRFTISRDNAKNTVYLQMNSLKPEDTAVYYCAADYRYGGSRGYRYDYWGQGTQVTVSS",
    "polyreactivity (PSR sort gate)": "low polyreactivity"
  },
  {
    "chainSequence": "QVQLVESGGGLVQAGGSLPLSCAASGSIVTDNAMGWYRQAPGKERELVAANTSSGNTNYADSVKGRFTISRDNAKNTVDLQMKSLKPEDTAVYYCAADSYYTHWTDWLPVGEDYWGQVTQVTVSS",
    "polyreactivity (PSR sort gate)": "low polyreactivity"
  },
  {
    "chainSequence": "QVQLVESGGGLVQAGGSLRLSCAASGLTSLSYAIGWYRQAPGKERELVAAITLSGCRTYYADSVKGRFTISRDNAKNTVYLQMNSLIPEDTAVYFCAVAGYWYSYGRKYLTTFEYWGQGTQVTVSS",
    "polyreactivity (PSR sort gate)": "high polyreactivity"
  },
  {
    "chainSequence": "QVQLEESGGGLVQAGGSLSLSCDASGRNFEGYAMGWYRQAPGKERELVAAINWSGGTTHYADSVKGRFTISRDNANNTVYLQINSLKPADTAVYYCAVRGRTPYDYWGQGTQVTVSS",
    "polyreactivity (PSR sort gate)": "low polyreactivity"
  },
  {
    "chainSequence": "QVQLVESGGGLVQAGGSLRLSCAASGFTFWSYTMGRYRQPHGKETELVADISWSGGSTYYADSVKGRFTISRDNAKNTVYLQMNSLKPEDTAVLYCNADGPFWARRSSRYYWGQGTQVTVSS",
    "polyreactivity (PSR sort gate)": "high polyreactivity"
  },
  {
    "chainSequence": "QVQLVESGGGLVQAGGRLRFSCAASGSTFRPNAMGWYRQAPGNERELVAAITRPGGSTFYADSVKGRFTISRDYAKHTVYLQMNSLKPEDTAVYYCATRQRVDLAPLARYGYWGQGTQVTVSS",
    "polyreactivity (PSR sort gate)": "low polyreactivity"
  },
  {
    "chainSequence": "QVQLVESGGGLVQAGGSLRLSCAASGRTFWRNAMGWYRPAPGKERELVAVISVRGSSTSYADSVKGRFTISRDNAKNNVYFQMNILKPEDTGVYYCAAGRRYRSVGYGYWGQGTQLTVSS",
    "polyreactivity (PSR sort gate)": "high polyreactivity"
  },
  {
    "chainSequence": "QVQLVESGGGLVQAGGSLRLSCAASGFIFRDYVMGWYRQAPGKERELVAAISYRGGSTNYADSVKGRFTISRDNAKNTVYLQMNSLKPEDTAVYSCAADQVHKREYDYWGQGTQVTVSS",
    "polyreactivity (PSR sort gate)": "low polyreactivity"
  },
  {
    "chainSequence": "QVQLVESGRGLVQAGGSLRLSCAASGRTFRFNAMGWYRQAPGKEREFVAAITSGGGTYYADSVKGRFTISRDNAKNTVYLQMNSLKPEDTAVYYCAAPRQYYLMDYGGQGTQVTVSS",
    "polyreactivity (PSR sort gate)": "low polyreactivity"
  }
]
